Parameter: koff. Scope: all listed entries.
- Study System: T1, human IL-13 (human, UniProt P35225 25-146, limits assumed)
- T1 construct: The KinExA antigen was detected with an anti-HIS IgG, so it probably carried a HIS tag; also called Interleukin-13; hIL-13
- T1 sequence (P35225 other isoform, or with tags, fused parts or gaps limits assumed): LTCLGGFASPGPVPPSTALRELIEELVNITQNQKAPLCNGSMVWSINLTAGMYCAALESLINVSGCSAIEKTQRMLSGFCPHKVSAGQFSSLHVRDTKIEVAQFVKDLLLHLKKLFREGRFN
- Assay Overview: SPR array (Carterra LSA), antibody captured on anti-human pAb HC30M chip, human IL-13 0.05-100 nM as analyte, 25 C, 1:1 fit
Field format: number, assumed s⁻¹, no unit text.

// worked examples, koff included
Binder	Result Number
NB-4 (antibody, human IgG4 S228P, kappa, V domains shown) VH: QVTLRESGPALVKPTQTLTLTCTVSGASLSAYSVNWIRQPPGKALEWLAMIWGDGKIVYNSALKSRLTISKDTSKNQVVLTMTNMDPVDTATYYCAGDGYYPYAMDNWGQGSLVTVSS VL: DIVMTQSPDSLSVSLGERATINCRASKSVDSYGNSFMHWYQQKPGQPPKLLIYLASNLESGVPDRFSGSGSGTDFTLTISSLQAEDVAVYYCQQNNEDPLTFGGGTKVEIKR	0.000987
NB-10 (antibody, human IgG4 S228P, kappa, V domains shown) VH: QVTLRESGPALVKPTQTLTLTCTVSGASLSAYSVNWIRQPPGKALEWLAMIWGDGKIVYNSALKSRLTISKDTSKNQVVLTMTNMDPVDTATYYCAGDGYYPYAMDNWGQGSLVTVSS VL: DIVMTQSPDSLSVSLGERATINCRASKSVDYYGNSFMHWYQQKPGQPPKLLIYLASNLESGVPDRFSGSGSGTDFTLTISSLQAEDVAVYYCQQNNEDPLTFGGGTKVEIKR	0.000805

Now consider a different binder.
Query: Looking for the measured koff of NB-3 (antibody, human IgG4 S228P, kappa, V domains shown) VH: QVTLRESGPALVKPTQTLTLTCTVSGASLSSYSVNWIRQPPGKALEWLAMIWGDGKIVYNSALKSRLTISKDTSKNQVVLTMTNMDPVDTATYYCAGEGYYPYAMDVWGQGSLVTVSS VL: DIVMTQSPDSLSVSLGERATINCRASKSVDSYGNSYMHWYQQKPGQPPKLLIYLASNLESGVPDRFSGSGSGTDFTLTISSLQAEDVAVYYCQQNNEDPRTFGGGTKVEIKR , can you help?
Result: 0.00047

Measured values drawn from patent US20260116963A1 for this set.
